# System: female DBF mice
# assay overview: Mouse hypercalcemia assay
# Assay type: in vivo
# setup conditions: orally via gavage for 6 days; serum ionized calcium 6 hours after last dosing
endpoint label: Mouse Hypercal (µg/kg/day)
Please respond with the number in µg/kg/day and leave the unit unwritten.

Recorded result, CCC(CC)(c1ccc(OCC(O)C(C)(C)C)c(C)c1)c1ccc(C(=O)Nc2nnn[nH]2)c(C)c1 (single isomer, unassigned) [Ex. 26] , Mouse Hypercal: 300

Recorded result, CCC(CC)(c1ccc(OC(C)C(O)C(C)(C)C)c(C)c1)c1ccc(C(=O)N[C@@H](C)C(=O)O)c(C)c1 (stereo partly shown) [Ex. 47] , Mouse Hypercal: 3000

Recorded result, CCC(CC)(c1ccc(OCC(O)C(C)(C)C)c(C)c1)c1ccc(C(=O)O)c(C)c1 (single isomer, unassigned) [Ex. 3B] , Mouse Hypercal: 3000

Recorded result, CCC(CC)(c1ccc(CCC(=O)O)c(C)c1)c1ccc(OCC(=O)C(C)(C)C)c(C)c1 [Ex 6] , Mouse Hypercal: 10

---

// reported Mouse Hypercal per item
# System: female DBF mice
# assay overview: Mouse hypercalcemia assay
# Type: in vivo
# setup conditions: orally via gavage for 6 days; serum ionized calcium 6 hours after last dosing
Please respond with the number in µg/kg/day and leave the unit unwritten.

Would you please look over these solved cases?
{"columns": ["molecule", "Mouse Hypercal (µg/kg/day)"],
 "data": [
  ["CCC(CC)(c1ccc(OCC(=O)C(C)(C)C)c(C)c1)c1ccc(OCC(=O)C(C)(C)C)c(C)c1 [DD, reference compound]", 1000],
  ["CCC(CC)(c1ccc(C(=O)O)cc1)c1ccc(OCC(=O)C(C)(C)C)c(C)c1 [Ex. 21]", 6000],
  ["CCC(CC)(c1ccc(OCC(O)C(C)(C)C)c(C)c1)c1ccc(C(=O)NS(C)(=O)=O)c(C)c1 (centres unmarked) [Ex. 5]", 100],
  ["CCC(CC)(c1ccc(C(=O)O)cc1)c1ccc(OCC(O)C(C)(C)C)c(Cl)c1 (single isomer, unassigned) [Ex. 37]", 1000],
  ["CCC(CC)(c1ccc(OCC(O)C(C)(C)C)c(C)c1)c1ccc(C(=O)N(C)CC(=O)O)c(C)c1 (single isomer, unassigned) [Ex. 19]", 2000]
]}

Recorded result, C=C1/C(=C\C=C2/CCC[C@]3(C)[C@@H]([C@H](C)CCCC(C)(C)O)CC[C@@H]23)C[C@@H](O)C[C@@H]1O [AA, 1α,25-dihydroxyvitamin D3, reference compound] , Mouse Hypercal: 0.06

Recorded result, CCC(CC)(c1ccc(OC(C)C(O)C(C)(C)C)c(C)c1)c1ccc(C(=O)NCC(=O)O)c(C)c1 (single isomer, unassigned) [Ex. 31] , Mouse Hypercal: 3000

Recorded result, CCC(CC)(c1ccc(OCC(O)C(C)(C)C)c(C)c1)c1ccc(C(=O)NCCS(C)(=O)=O)c(C)c1 (single isomer, unassigned) [Ex. 15A] , Mouse Hypercal: 1500

Recorded result, CCC(CC)(c1ccc(C(=O)O)cc1)c1ccc(OCC(O)C(C)(C)C)c(C)c1 (single isomer, unassigned) [Ex. 23] , Mouse Hypercal: 3000

Recorded result, CCC(CC)(c1ccc(OCC(O)C(C)(C)C)c(C)c1)c1ccc(C(=O)Nc2nnn[nH]2)c(C)c1 (single isomer, unassigned) [Ex. 27] , Mouse Hypercal: 300

Recorded result, CCC(CC)(c1ccc(OC(C)C(O)C(C)(C)C)c(C)c1)c1ccc(C(=O)NCC(=O)O)c(C)c1 (single isomer, unassigned) [Ex. 32] , Mouse Hypercal: 1000

Recorded result, CCC(CC)(c1ccc(OC(C)C(O)C(C)(C)C)c(C)c1)c1ccc(C(=O)N[C@H](C)C(=O)O)c(C)c1 (some centres unmarked) [Ex. 46] , Mouse Hypercal: 3000

---

# Test system: female DBF mice
# assay overview: Mouse hypercalcemia assay
# Type: in vivo
# setup conditions: orally via gavage for 6 days; serum ionized calcium 6 hours after last dosing
endpoint label: Mouse Hypercal (µg/kg/day)
Please respond with the number in µg/kg/day and leave the unit unwritten.

Would you please look over these solved cases?
{"columns": ["compound", "Mouse Hypercal / µg/kg/day"],
 "data": [
  ["CCC(CC)(c1ccc(OCC(O)C(C)(C)C)c(C)c1)c1ccc(C(=O)NCC(=O)O)c(C)c1 (single isomer, unassigned) [Ex. 25B]", 1000],
  ["CCC(CC)(c1ccc(OCC(O)C(C)(C)C)c(C)c1)c1ccc(C(=O)N(C)CC(=O)O)c(C)c1 (single isomer, unassigned) [Ex. 18]", 1000],
  ["CCC(CC)(c1ccc(OC[C@@H](O)C(C)(C)C)c(C)c1)c1ccc(C(=O)NCCS(C)(=O)=O)c(C)c1 (stereo in doubt) [Ex. 14]", 3000],
  ["CCC(CC)(c1ccc(OC(C)C(O)C(C)(C)C)c(C)c1)c1ccc(C(=O)Nc2nnn[nH]2)c(C)c1 (single isomer, unassigned) [Ex. 29]", 3000],
  ["CCC(CC)(c1ccc(CC2SC(=O)NC2=O)c(C)c1)c1ccc(OCC(O)C(C)(C)C)c(C)c1 (single isomer, unassigned) [Ex. 51]", 300]
]}

Recorded result, CCC(CC)(c1ccc(OCC(=O)C(C)(C)C)c(C)c1)c1ccc(OC[C@H](O)C(C)(C)C)c(C)c1 [EE, reference compound] , Mouse Hypercal: 1000

Recorded result, CCC(CC)(c1ccc(OCC(O)C(C)(C)C)c(C)c1)c1ccc(C(=O)NC(C)(C)C(=O)O)c(C)c1 (single isomer, unassigned) [Ex. 20B] , Mouse Hypercal: 300

Recorded result, CCC(CC)(c1ccc(CCC(=O)N(C)C)c(C)c1)c1ccc(OCC(O)C(C)(C)C)c(C)c1 (stereo not shown) [Ex. 8] , Mouse Hypercal: 100

Recorded result, CCC(CC)(c1ccc(OCC(O)C(C)(C)C)c(C)c1)c1ccc(C(=O)O)c(C)c1 (single isomer, unassigned) [Ex. 3A] , Mouse Hypercal: 1000

Recorded result, CCC(CC)(c1ccc(OC(C)C(O)C(C)(C)C)c(C)c1)c1ccc(C(=O)O)c(C)c1 (single isomer, unassigned) [Ex. 12] , Mouse Hypercal: 4000

Recorded result, CCC(CC)(c1ccc(OCC(O)C(C)(C)C)c(C)c1)c1ccc(C(=O)Nc2nnn[nH]2)c(C)c1 (single isomer, unassigned) [Ex. 12a] , Mouse Hypercal: 300

Recorded result, CCC(CC)(c1ccc(-c2nnn[nH]2)cc1)c1ccc(OCC(O)C(C)(C)C)c(C)c1 (single isomer, unassigned) [Ex. 45] , Mouse Hypercal: 300

---

# Test system: IL-10
# assay overview: human IL-10 induction assay in PBMCs
# Format: cell-based
# setup conditions: Homo sapiens, PBMC, TPA/PHA treated human PBMCs, IL-10 immunoassay of supernatant
endpoint label: pIC50
Reminder that pIC50 means the negative base-10 logarithm of the concentration expressed in mol/L.

{"columns": ["compound", "target of assay", "endpoint label", "assay value"],
 "data": [
  ["CCC(CC)(c1ccc(C(=O)O)cc1)c1ccc(OCC(=O)C(C)(C)C)c(C)c1", "IL-10", "pIC50", 5.98]
]}

Summary line: CCC(CC)(c1ccc(C(=O)O)cc1)c1ccc(OCC(O)C(C)(C)C)c(Cl)c1 (single isomer, unassigned) , IL-10, reported pIC50 = 6.64

Summary line: "CCC(CC)(c1ccc(CCC(=O)O)c(C)c1)c1ccc(OCC(=O)C(C)(C)C)c(C)c1" , IL-10, reported pIC50 = 7.26

Summary line: CCC(CC)(c1ccc(OCC(O)C(C)(C)C)c(C)c1)c1ccc(C(=O)Nc2nnn[nH]2)c(C)c1 (single isomer, unassigned) [Ex. 12a] , IL-10, reported pIC50 = 7.28

---

# System: IL-10
# assay overview: human IL-10 induction assay in PBMCs
# Type: cell-based
# setup conditions: TPA/PHA treated human PBMCs, IL-10 immunoassay of supernatant
# Text: The evaluation of the novel compounds of the invention for psoriasis is done using the Keratinocyte Proliferation Assay in combination with other assays that measure inhibition of IL-2 production and stimulation of IL-10 production in peripheral blood mononuclear cells (PBMCs). 6. The IL-10 Induction Assay This is an in vitro efficacy assay for psoriasis, abscess and adhesion. Psoriasis involves both keratinocytes and immune cells. […]
pIC50: −log10 of the molar value.
Would you please tag the item Condition met when its pIC50 is 8 or above, and Condition not met when it is below?

Take a look at these entries with their results.
{"columns": ["compound", "target of assay", "class name"],
 "data": [
  ["CCC(CC)(c1ccc(OC(C)C(O)C(C)(C)C)c(C)c1)c1ccc(C(=O)Nc2nnn[nH]2)c(C)c1 (single isomer, unassigned)", "IL-10", "Condition not met"],
  ["CCC(CC)(c1ccc(OC(C)C(O)C(C)(C)C)c(C)c1)c1ccc(C(=O)NCC(=O)O)c(C)c1 (single isomer, unassigned) [Ex. 31]", "IL-10", "Condition not met"],
  ["CCC(CC)(c1ccc(OC(C)C(O)C(C)(C)C)c(C)c1)c1ccc(C(=O)NCC(=O)O)c(C)c1 (single isomer, unassigned) [Ex. 32]", "IL-10", "Condition not met"]
]}

Continue with the compound presented below.
Request: Hi, just wondering whether CCC(CC)(c1ccc(CC2SC(=O)NC2=O)c(C)c1)c1ccc(OCC(O)C(C)(C)C)c(C)c1 (single isomer, unassigned) [Ex. 50] shows pIC50 of 8 or higher.
Result: Condition met
